Test system: VDR:RXRa (NR concentration 270 nM, RXRa partner concentration 90 nM)
Experiment: PBM binding z-score (relative to random genomic background probes); higher = stronger binding; sequences stand for … in GC…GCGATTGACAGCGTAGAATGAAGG
Attribute measured: PBM binding z-score
// return a plain number; no unit text

PBM binding z-score recorded for this sequence, TCATATAGGTAAATCCTAGGTGAAAGTCCGATCT , is 0.7

====

Tested on: PXR:RXRa (NR concentration 270 nM, RXRa partner concentration 90 nM)
Assay: PBM binding z-score (relative to random genomic background probes); higher = stronger binding; sequences stand for … in GC…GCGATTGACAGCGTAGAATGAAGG
PBM binding z-score for assorted sequences
// return a plain number; no unit text

Some solved entries appear below for comparison.
| Sequence input | PBM binding z-score |
| --- | --- |
| ACTAGTTGGTCAGCTGACGTCACACACAATTCGG | 0.163 |
| GATACAGGCTCAAGGCCAGAGTACGCGTATTGAT | -0.534 |
| TCTGCTAGGTCAGTGGGTCAGCTAACGAGCTGCC | 0.857 |

PBM binding z-score recorded for this sequence, CCTAGTTGGTCAGGAGGTCACACTCCGGATATGA , is 4.23

PBM binding z-score recorded for this sequence, CGCGAAAGGTCGGTTGAGGTGAGTATACGGATAA , is 3.35

PBM binding z-score recorded for this sequence, TCTTGTAGATCAATAGAGGTTAAGAAAGTGCGCT , is 2.86

PBM binding z-score recorded for this sequence, AGAATGAGGTTAAGATCATGGAAACAGAATACAT , is 1.24

====

Test system: VDR homodimer (NR concentration 270 nM)
Assay: PBM binding z-score (relative to random genomic background probes); higher = stronger binding; sequences stand for … in GC…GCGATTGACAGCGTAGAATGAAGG
Attribute measured: PBM binding z-score
// return a plain number; no unit text

Some solved entries appear below for comparison.
| Sequence input | PBM binding z-score |
| --- | --- |
| GCATATAGGTAACACAAGGTGAAAGTCCGATTGT | 0.00161 |
| CGAACTAGGTCAGAAGAGGACAGTGAAGGATGAT | 0.275 |
| CTCGAAAGGTCGTTTGAGGTGAGTATACGGATAA | 2.79 |

# lookup: CGAACGAGGGAATGAGTTGATAGCAAATGCCGAT on VDR homodimer (NR concentration 270 nM), PBM binding z-score = 0.188

# lookup: GCTGCTAGGTCAGGTTGGTCAGCTTACGGGTACG on VDR homodimer (NR concentration 270 nM), PBM binding z-score = 0.197

# lookup: CGTGCAAGGTCAGCAGGTCAGTGAAAGCGACGTG on VDR homodimer (NR concentration 270 nM), PBM binding z-score = 1.73

# lookup: AGAATGAGGTTATTAAGGTCAGGGAATTGCGGTC on VDR homodimer (NR concentration 270 nM), PBM binding z-score = 4.86

# lookup: CGAACTAGGTAAGAACAGGACAGTGAAGGATGAT on VDR homodimer (NR concentration 270 nM), PBM binding z-score = -0.504

# lookup: TCTCGGAGGACACGAAGGTTAGAGCTTTCCAGAG on VDR homodimer (NR concentration 270 nM), PBM binding z-score = -0.226

# lookup: TCTTTTAGATCAGCAGGTTAAGAAAGCTGGCCAA on VDR homodimer (NR concentration 270 nM), PBM binding z-score = 0.00166

# lookup: ACTAGTTGGCCAGCTGAGGTCACACACAATTCGG on VDR homodimer (NR concentration 270 nM), PBM binding z-score = 2.74

====

Tested on: RXRa DBDmut IVT, anti-RXR (DBD mutation: RXRa K156A/R161A, NR concentration 90 nM)
Experiment: PBM binding z-score (relative to random genomic background probes); higher = stronger binding; sequences stand for … in GC…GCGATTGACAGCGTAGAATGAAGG
Please mark Condition met if the recorded PBM binding z-score is equal to or greater than 0.6, and Condition not met if it falls below.

Answered cases to consult:
| Sequence input | Group label |
| --- | --- |
| GATACAGGGTCAGCTAGATGCCAGAGTATGGAAA | Condition met |
| TCTATTAGTTGATTAGGGCAACCGGAACAGCGGA | Condition met |
| GCTATCAGTTGAAAGGGCAACCGAATGATTCTCG | Condition not met |
| TAGCATAGGTCATTCAGGGGCCAGTATAGAAAGC | Condition met |
| CCTGCTGGGCCAAAGGTCATTGATTCCAATGCTC | Condition met |

**Q:** State whether the measured PBM binding z-score reaches 0.6, counting equality as reaching it, for TGAATTAGGTTATAAGATCAGGGAACGTTGCAAA
**A:** Condition not met

**Q:** State whether the measured PBM binding z-score reaches 0.6, counting equality as reaching it, for TCATATAGGTAAATGCTAGGTGGAAGTCCGATCT
**A:** Condition met

**Q:** State whether the measured PBM binding z-score reaches 0.6, counting equality as reaching it, for CCTAACGGGTCAAGGTTATAGCACGGGTGGTACG
**A:** Condition met

**Q:** State whether the measured PBM binding z-score reaches 0.6, counting equality as reaching it, for ATATCTAGGTTACATCCGGGTCATTCAGGCTATG
**A:** Condition met

**Q:** State whether the measured PBM binding z-score reaches 0.6, counting equality as reaching it, for CCTTACGGGTCACTGATAGGTTATAGCATTTGGA
**A:** Condition met

**Q:** State whether the measured PBM binding z-score reaches 0.6, counting equality as reaching it, for CGTCCAAGGTCAAGGTCAGTGGAAGAGACTCGAA
**A:** Condition met

**Q:** State whether the measured PBM binding z-score reaches 0.6, counting equality as reaching it, for GGAACGAGGGCAAGTTGATAGCTGAGTTTGATGG
**A:** Condition met

**Q:** State whether the measured PBM binding z-score reaches 0.6, counting equality as reaching it, for CCGAGTAGGTTATGGGGGATTCAGGCAACGGTGA
**A:** Condition not met

**Q:** State whether the measured PBM binding z-score reaches 0.6, counting equality as reaching it, for CCGACTGCGGCAGAAAGGTTACCATACCATCCGG
**A:** Condition not met

**Q:** State whether the measured PBM binding z-score reaches 0.6, counting equality as reaching it, for GCTCGGTGGACAAGGTCAGAGCTTTGTCCGTAGA
**A:** Condition not met

**Q:** State whether the measured PBM binding z-score reaches 0.6, counting equality as reaching it, for AGTCAAAGTACATCTAGGTAACGTAAGATATGCT
**A:** Condition met

**Q:** State whether the measured PBM binding z-score reaches 0.6, counting equality as reaching it, for CGTCCAAGGTCAATGCTAGGTCAGTGACAGCATT
**A:** Condition met

====

System: RARg homodimer (NR concentration 270 nM)
Assay: PBM binding z-score (relative to random genomic background probes); higher = stronger binding; sequences stand for … in GC…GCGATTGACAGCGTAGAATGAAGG
Please mark 1 if the recorded PBM binding z-score is equal to or greater than 0.4, and 0 if it falls below.

Answered cases to consult:
| Sequence input | Group label |
| --- | --- |
| TGAATGAGGCTATAAGATCAGGGAACGTTGCAAA | 0 |
| TCGAGTAGGTTAGTCGGGACATTCAGCCAACATA | 0 |
| CAGACTAGGTCACCGGAAGGTCAAAGTCCGCATG | 1 |

**Q:** State whether the measured PBM binding z-score reaches 0.4, counting equality as reaching it, for ACTATTACTTGAGACGAGGGCAACCGATAGGTTG
**A:** 1

**Q:** State whether the measured PBM binding z-score reaches 0.4, counting equality as reaching it, for CCTACTGGGCCATCAGGGCATTGATATCAACGTT
**A:** 1

====

PBM binding z-score for assorted sequences
Tested on: PPARg:RXRa DBDmut IVT, anti-RXR (DBD mutation: RXRa K156A/R161A, NR concentration 270 nM, RXRa partner concentration 90 nM)
Assay: PBM binding z-score (relative to random genomic background probes); higher = stronger binding; sequences stand for … in GC…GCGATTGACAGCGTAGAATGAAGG
// return a plain number; no unit text

Some solved entries appear below for comparison.
| Sequence input | Measured value |
| --- | --- |
| GCTGCTAGGTCAGCTGATGGTCAGCTAAAGCTCG | 3.51 |
| TCATATAGGTAAACAGCTGAAAGTCCGTAAGTTA | 3.93 |
| CCAGACAGGTGAGATGGTAACTCAGCCTCGATTA | 0.95 |
| ACTAGCAGGCCAAGTTTGGGTCACACAAACAAAG | 0.756 |
| CCTTACGGGTCACGAGGTTTTAGCACGACGAGCG | 4.32 |

PBM binding z-score recorded for this sequence, GGACCGAGGGCAAAGTTGATAGCATCTGTCGACG , is 0.973
